# Procedure details: Partition coefficient in the octanol/water phase at pH 7.4
# Assay type: physicochemical
# logD per entry
Just the number, please.

Task item: Need logD of CC(C)C[C@H](O)[C@H](O)[C@H](CC1CCCCC1)NC(=O)[C@H](Cc1cscn1)NC(=O)[C@H](Cc1ccccc1)CS(=O)(=O)C1CCN(C)CC1 , thanks.
Reply: 3.61

Task item: # iterate: CC(C)C[C@H](O)[C@H](O)[C@H](CC1CCCCC1)NC(=O)[C@H](Cc1cscn1)NC(=O)[C@H](Cc1ccccc1)CS(=O)(=O)C1CN(C)C1
Reply: 3.89

* * *

# Procedure details: In vitro inhibitory concentration against monkey plasma renin at pH 7.4
Measurement name: pIC50
Give only the number. pIC50 is defined as minus log10 of concentration in molar units.

Task item: What value of measured pIC50 is listed for CC(C)C[C@H](O)[C@H](O)[C@H](CC1CCCCC1)NC(=O)[C@H](Cc1cscn1)NC(=O)[C@@H](CC(=O)N(C)CCc1ccccn1)Cc1ccccc1 ?
Reply: 9.12
